system: Moser human colon; experiment: In vitro cytotoxicity assay, Moser human colon; format: cell-based; details: inhibit cell growth by 50%; four-fold serial dilution; two lines per compound
List of IC50 MOSER values.
value_kind: IC50 MOSER (µg/mL)

# compound, recorded_result
measured = [
    ("COc1cc(C2c3cc4c(cc3C(OC3OC5COC(C)OC5C(O)C3O)C3COC(=O)C23)OCO4)cc(N)c1N (stereo not shown)", 91),
    ("COc1cc(C2c3cc4c(cc3C(OC3OC5COC(C)OC5C(O)C3O)C3COC(=O)C23)OCO4)cc2nn[nH]c12 (stereo not shown)", 88),
    ("CON=C1C=C(C2c3cc4c(cc3C(OC3OC5COC(C)OC5C(O)C3O)C3COC(=O)C23)OCO4)C=C(OC)C1=NOC (stereo not shown)", 40),
    ("COc1cc(C2c3cc4c(cc3C(OC3OC5COC(C)OC5C(O)C3O)C3COC(=O)C23)OCO4)cc2nc(C)c(C)nc12 (stereo not shown)", 90),
    ("COc1cc(C2c3cc4c(cc3C(OC3OC5COC(C)OC5C(O)C3O)C3COC(=O)C23)OCO4)cc(NC(C)=O)c1NC(C)=O (stereo not shown)", 123),
    ("CCOP1(=S)Nc2cc(C3c4cc5c(cc4C(OC4OC6COC(C)OC6C(O)C4O)C4COC(=O)C34)OCO5)cc(OC)c2N1 (stereo not shown)", 23),
    ("COc1cc(C2c3cc4c(cc3C(OC3OC5COC(C)OC5C(O)C3O)C3COC(=O)C23)OCO4)cc2nc[nH]c12 (stereo not shown)", 115),
]
